Quick reference for normalized growth among some compounds
# experimentDescription: chemical genetic growth profiling, strain panel (AID 1159580);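 further: tested at 20 µM; growth read once vehicle control cultures reached saturation at 30 °C; 1 = growth at the plate median or of vehicle wells; lower values mean less growth of the strain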
# conditionInfo: S. cerevisiae deletion strains, growth OD, locus YNL067W, strain RPL9B, active compounds read low
Among all 5,500 compounds or so, about 2,000 (36%) were called active. Inconclusive results (about 18%) are left out. The list shows a part of the results.
Form rule: numeric answer, no unit written next to it.

# annotated cases, reported normalized growth shown
{"compound": "CC(CCC(=O)O)[C@H]1CCC2C3CC[C@@H]4CC(=O)CC[C@]4(C)C3C=C[C@@]21C (stereo not given in full)", "readoutLabel": "normalized growth", "reportedValue": 0.971}
{"compound": "C/C1=C\\CC(C)(C)/C=C/CC2(C)OC2CC1 (stereo not given)", "readoutLabel": "normalized growth", "reportedValue": 1.02}
{"compound": "CN(C)C(=O)Oc1cccc([N+](C)(C)C)c1", "readoutLabel": "normalized growth", "reportedValue": 1.01}
{"compound": "C/C1=C/CC(C)(C)/C=C/C/C(C)=C/CC1", "readoutLabel": "normalized growth", "reportedValue": 0.869}

Look up normalized growth: NCC(N)C(=O)c1ccccc1 (stereo not given)
1
